Hey, just so you know, these numbers are from PubChem BioAssay AID1159580.

Test: chemical genetic growth profiling, strain panel (AID 1159580);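 further: tested at 20 µM; growth read once vehicle control cultures reached saturation at 30 °C; 1 = growth at the plate median or of vehicle wells; lower values mean less growth of the strain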
Settings: S. cerevisiae deletion strains, growth OD, locus YNL298W, strain CLA4 (second series), hits give low values
In all, about 5,500 compounds went through this assay and about 2,000 (36%) were called active. Not shown: some 18% with an inconclusive outcome. This is one part of the list.
Listed compounds paired with reported normalized growth

# input Name the recorded normalized growth for `Cc1cc(=O)n2[nH]cnc2n1` .
# output 1.01 (inactive)

More entries:
# input Consider the compound shown here: `COc1ccc(-n2c(=S)[nH]c(=O)c3cccnc32)cc1` What is its recorded normalized growth?
# output 1 (inactive)

# input Try the compound `O=C(CCc1nc(-c2ccc(Cl)cc2)no1)NNS(=O)(=O)c1cc(Cl)c(Cl)cc1Cl`
# output 0.993 (inactive)

====

Experiment: chemical genetic growth profiling, strain panel (AID 1159580)
Settings: S. cerevisiae deletion strains, growth OD, locus YKR026C, strain gcn3, hits give low values
Among all 5,500 compounds or so, about 2,000 (36%) were called active. Another 18% or so got no clear call; they are omitted. The list shows a part of the results.
Reported normalized growth values are given for each entry in this list.
Write the number on its own, no unit after it.

# input Entry under review: C=C1C2CC[C@@]3(C)[C@H](c4ccoc4)OC(=O)C[C@]13O[C@H]1CC(=O)C(C)(C)[C@H](C(OC(C)=O)C(=O)OC)[C@@]21C (stereo partly specified) . Reported normalized growth?
# output 1.01

# input Queued: `CCn1cc(C(=O)O)c(=O)c2cc(F)c(N3CCNCC3)nc21`
# output 0.989

# input Entry to check: `C=CCCCCCCCCCCCc1ccco1`
# output 0.986

# input Same lookup for `CCCCCCCCCCCCCc1ccco1` , please.
# output 0.966

# input Next up: `COc1ccc(C(c2ccc(OC)cc2)C(Cl)(Cl)Cl)cc1`
# output 1.01

# input Now the compound CC1COc2c(N3CCN(C)CC3)c(F)cc3c(=O)c(C(=O)O)cn1c23 (stereo unspecified)
# output 0.988

# input Please give the result for COc1c(N2CCNC(C)C2)c(F)cc2c(=O)c(C(=O)O)cn(C3CC3)c12 (stereo unspecified) too.
# output 0.987

====

Assay: chemical genetic growth profiling, strain panel (AID 1159580)
Conditions: S. cerevisiae deletion strains, growth OD, locus YER123W, strain YCK3
Out of some 5,500 compounds screened, about 2,000 (36%) were called active. About 18% were inconclusive and are not listed. Rule as the data show it: active = normalized growth mostly below about 0.91 (no sharp cut-off); inconclusive = no clear call, values can overlap the other calls; inactive = mostly above about 0.92. The list shows a part of the results.
Mark one answer only. Choices: active, inactive

A selection of reference data follows.
# input So what was the verdict on `C/C(Cc1nnn(-c2cc(C)on2)n1)=N/OC(=O)Nc1ccc(Cl)cc1` in this test?
# output inactive

# input Continue with `O=C(Nc1cccc(C(F)(F)F)c1)c1cncc(C#Cc2ccccc2)c1`
# output inactive

# input Subsequent entry: `Cc1cc(C(=O)NNS(=O)(=O)c2ccc(F)c(Cl)c2)nn1-c1c(Cl)cc(Cl)cc1Cl`
# output inactive

# input Next record, please: COc1ccc(C(CC(=O)c2ccccc2)Sc2ccccc2N)cc1OC (stereo unspecified)
# output inactive

New cases:
# input What call does the record list for `N#C/C(=N/Nc1ccc(F)cc1)S(=O)(=O)c1ccc(Cl)cc1` ?
# output inactive

# input // next record `Oc1c(Cl)cc(Cl)cc1C=Nc1nc(-c2ccc3ccccc3c2)cs1`
# output active

# input # iterate: `CC(=O)/C(C#N)=N\Nc1ccc(F)cc1`
# output active

# input Try the compound `N#C/C(=N/Nc1ccc(F)cc1)C(=O)c1ccccc1`
# output inactive

# input Same question, CC(C)(C)c1ccc(C(=N)SC(C(=O)C(F)(F)F)c2ccccc2)cc1 (stereo unspecified) this time
# output inactive

# input Same question for `N#C/C(=N/Nc1ccccc1)C(=O)c1ccccc1OC(F)(F)F` please.
# output inactive

# input What about `CC(C)(C)c1ccc(N/N=C(\C#N)C(N)=O)cc1` ?
# output active

====

Experiment: chemical genetic growth profiling, strain panel (AID 1159580)
Settings: S. cerevisiae deletion strains, growth OD, locus YFL009W, strain cdc4, hits give low values
The whole screen tested about 5,500 compounds, of which about 2,000 (36%) were called active. Another 18% or so got no clear call; they are omitted. The list shows a part of the results.
result type: normalized growth
Number only, no unit.

# input Which measured normalized growth value corresponds to `O=C(c1csc(-c2ccc(Cl)cc2)c1)N1CCCCC1` ?
# output 0.942

# input Also `COc1cccc(C2CCN(C(=O)c3cccc4ccccc34)CC2)c1` ?
# output 0.992

====

Test: chemical genetic growth profiling, strain panel (AID 1159580);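 further: tested at 20 µM; growth read once vehicle control cultures reached saturation at 30 °C; 1 = growth at the plate median or of vehicle wells; lower values mean less growth of the strain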
Settings: S. cerevisiae deletion strains, growth OD, locus YHR027C, strain rpn1, hits give low values
Screen size: about 5,500 compounds; about 2,000 (36%) were called active. About 18% were inconclusive and are not listed. Some of the results follow.
satisfied if normalized growth is below 1. not satisfied if not; exact matches included in not satisfied.

# input Strictly below 1 in normalized growth? `CC1(C)S[C@@H]2[C@H](NC(=O)[C@H](N)c3ccccc3)C(=O)N2[C@H]1C(=O)O`
# output satisfied

# input And the next one, `NCCS(=O)(=O)O` ?
# output satisfied

# input Moving on to the next molecule: CC[C@@H](C(=O)C(C)[C@@H](O)[C@H](C)CCc1ccc(C)c(O)c1C(=O)O)C1OC(CC)(C2CC[C@](O)(CC)[C@H](C)O2)C[C@@H]1C (stereo partly specified)
# output not satisfied

# input # repeat for `NCCCS(=O)(=O)O`
# output not satisfied

# input # repeat for `O=C(O[C@@H]1Cc2c(O)cc(O)cc2O[C@@H]1c1ccc(O)c(O)c1)c1cc(O)c(O)c(O)c1`
# output satisfied

---
# input Determine whether this molecule shows normalized growth lower than 1 (ties excluded): `O=C1C(Cl)=C(Cl)C(=O)C(Cl)=C1Cl`
# output satisfied

# input Likewise for `O=C(NC(=O)c1ccccc1Cl)Nc1ccc(OC(F)(F)F)cc1` ?
# output not satisfied

====

Test: chemical genetic growth profiling, strain panel (AID 1159580);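 further: tested at 20 µM; growth read once vehicle control cultures reached saturation at 30 °C; 1 = growth at the plate median or of vehicle wells; lower values mean less growth of the strain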
Details: S. cerevisiae deletion strains, growth OD, locus YLR403W, strain SFP1, hits give low values
Among all 5,500 compounds or so, about 2,000 (36%) were called active. Roughly 18% stayed inconclusive and do not appear here. This is one part of the list.
Quick list: normalized growth per entry.
Lab note: record just the number, no unit beside it.

Example entries begin here.
# input Item `Cc1nn(C)c(C(=O)Sc2ccc(OC(F)(F)F)cc2)c1[N+](=O)[O-]` has what recorded normalized growth?
# output 0.99

# input Would you kindly repeat that for `O=C(c1csc(-c2ccc(Cl)cc2)c1)N1CCCCC1` ?
# output 0.79

# input // same read-out, input: `N#C/C(=N/Nc1ccc(F)cc1)S(=O)(=O)c1ccc(Cl)cc1`
# output 0.899

# input How about `N#C/C(=N/Nc1ccccc1)C(=O)c1ccccc1OC(F)(F)F` ?
# output 0.837

# input Check `COc1cc(Cl)ccc1N/N=C(/C#N)C(N)=O` too.
# output 0.00868

# input Do the same for CCOC(=O)C1C(c2c(F)cccc2Cl)C(C(=O)OCC)C(O)(C(F)(F)F)NC1(O)C(F)(F)F (stereo unspecified) please
# output 0.986

# input Request: `N#C/C(=N/Nc1ccc(F)cc1)C(=O)c1ccccc1`
# output 0.721

# input Item: `CC(=O)c1ccc(Cl)c(NS(=O)(=O)c2cc(Cl)c(Cl)cc2Cl)c1`
# output 0.826

New cases:
# input Consider the molecule shown here: `COc1cccc(C2CCN(C(=O)c3cccc4ccccc34)CC2)c1` What is its recorded normalized growth?
# output 0.922

# input Thanks! And `CC(C)(C)c1ccc(N/N=C(\C#N)C(N)=O)cc1` ?
# output 0.00739

# input Check `Cc1ccc(S(=O)(=O)NC(=O)Nc2ccc(Sc3ccccc3)nc2Sc2ccccc2)cc1` too.
# output 0.999

====

Test: chemical genetic growth profiling, strain panel (AID 1159580);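 further: tested at 20 µM; growth read once vehicle control cultures reached saturation at 30 °C; 1 = growth at the plate median or of vehicle wells; lower values mean less growth of the strain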
Settings: S. cerevisiae deletion strains, growth OD, locus YLR371W, strain rom2
Hit rate of the full screen: of about 5,500 compounds, about 2,000 (36%) were called active. Roughly 18% stayed inconclusive and do not appear here. Cut-off read from the data, not from the text of the source: active = normalized growth mostly below about 0.91 (no sharp cut-off); inconclusive = no clear call, values can overlap the other calls; inactive = mostly above about 0.92. Some of the results follow.
Log the outcome using a class from active, inactive

Worked cases, answers included:
# input Dear all, I need the recorded test outcome for `Nc1nc(=S)c2[nH]cnc2[nH]1` , thank you.
# output inactive

# input Also `CC[C@@]1(O)C[C@H](O[C@H]2C[C@H](N(C)C)[C@H](O)[C@H](C)O2)c2c(cc3c(c2O)C(=O)c2c(O)ccc(O)c2C3=O)[C@H]1C(=O)OC` , if possible.
# output active

# input Consider next the compound C=C[C@@](C)(O)CCC1C(=C)CCC2[C@@](C)(CO)CCC[C@]12C (stereo partly drawn) in the same way.
# output active

# input And what about the compound `CC[C@@]1(O)C[C@H](O[C@H]2C[C@H](N(C)C)[C@H](O)[C@H](C)O2)c2c(cc3c(c2O)C(=O)c2c(O)cccc2C3=O)[C@H]1C(=O)OC` ?
# output active

# input Okay, and NCCC(O)C(=O)NC1CC(N)C(OC2OC(CN)C(O)C(O)C2N)C(OC2OC(CO)C(O)C2O)C1O (stereo not drawn) ?
# output inactive

More entries:
# input Hello, I am checking results. What call was entered for C=C[C@@](C)(O)CCC1C(=C)C[C@H](O)C2C(C)(C)CCCC12C (stereo partly drawn) ?
# output inactive

# input Next entry: CC1(C)CCC[C@@]2(C)C1[C@@H](O)C[C@]1(C)C2CC[C@@H]2[C@@]3(C)CC[C@H](C(C)(C)O)[C@@H]3CC[C@@]21C (stereo partly drawn)
# output inactive

# input Same question for `Cc1[nH]c2ccccc2c1CN(C)C` please.
# output inactive
